What inhibition was measured for each of the following?
experimental_system: Tubulin (Homo sapiens) (UniProt P68371+Q9H4B7+P0DPH7+P68366+Q13509+Q71U36+P04350+Q3ZCM7+P07437+P68363+Q9BQE3+Q6PEY2+Q13885+Q9BVA1+Q9BUF5)
experiment_summary: Inhibition of tubulin (unknown origin) polymerization at 10 uM measured every 1 min over 20 mins by fluorescence assay relative to control
Format: protein-complex assay
Numbers only, in %.

CCCc1ccc(NC(=O)Cn2nc(-c3cc(OC)c(OC)c(OC)c3)nc2N)cc1; 14
COc1cc(-c2nc(N)n(Cc3ccc(C)cc3)n2)cc(OC)c1OC; 25
COc1ccc(C(=O)Cn2nc(-c3cc(OC)c(OC)c(OC)c3)nc2N)cc1; 52

Respectfully, I request inhibition for each entry included below.
1. COc1cc(-c2nc(N)n(CC(=O)Nc3ccc(C(C)(C)C)cc3)n2)cc(OC)c1OC
2. COc1cc(-c2nc(N)n(CC(=O)c3ccc(C)cc3)n2)cc(OC)c1OC

1. 48
2. 42

----------
System: HeLa
experiment_summary: Antiproliferative activity against human HeLa cells assessed as cell growth inhibition at 100 uM by MTT assay relative to control
Type: functional
condition_parameters: read-out: GI
What inhibition of growth at 100 µM was measured for each of the following?
One number for each entry, in %.

// below: answered molecules
COc1cc(-c2nc(N)n(Cc3cc(OC(F)(F)F)cc(OC(F)(F)F)c3)n2)cc(OC)c1OC; 73
COc1cccc(NC(=O)Cn2nc(-c3cc(OC)c(OC)c(OC)c3)nc2N)c1; 39
COc1cc(-c2nc(N)n(CC(=O)Nc3ccc(C)cc3F)n2)cc(OC)c1OC; 32

Respectfully, I request inhibition of growth at 100 µM for each entry included below.
1. COc1ccc(NC(=O)Cn2nc(-c3cc(OC)c(OC)c(OC)c3)nc2N)cc1OC
2. COc1cc(-c2nc(N)n(Cc3ccc(C)cc3)n2)cc(OC)c1OC

[41, 76]

----------
Test system: HeLa
experiment_summary: Antiproliferative activity against human HeLa cells assessed as cell growth inhibition at 100 uM by MTT assay relative to control
Format: functional
condition_parameters: read-out: GI
What inhibition of growth at 100 µM was measured for each of the following?
Answer format reminder: number followed by unit.

// below: answered compounds
COc1cc(-c2nc(N)n(CC(=O)c3ccc(F)c(F)c3)n2)cc(OC)c1OC; 31%
COc1cc(-c2nc(N)n(CC(=O)c3cccc(Br)c3)n2)cc(OC)c1OC; 66%

Respectfully, I request inhibition of growth at 100 µM for each entry included below.
1. COc1cc(-c2nc(N)n(CC(=O)Nc3c(C)cc(C)cc3C)n2)cc(OC)c1OC
2. COc1cc(-c2nc(N)n(CC(=O)Nc3cccc(C)c3)n2)cc(OC)c1OC
3. CCCc1ccc(NC(=O)Cn2nc(-c3cc(OC)c(OC)c(OC)c3)nc2N)cc1
4. COc1cc(-c2nc(N)n(CC(=O)c3ccc(Br)cc3)n2)cc(OC)c1OC

49%
18%
75%
41%

----------
System: HeLa
experiment_summary: Antiproliferative activity against human HeLa cells assessed as cell growth inhibition at 100 uM by MTT assay relative to control
Type: functional
condition_parameters: read-out: GI
Label not met if inhibition of growth at 100 µM falls below 30%; label met in every other case.

Please review the following examples before continuing.
COc1cc(-c2nc(N)n(CC(=O)Nc3ccc(C)cc3)n2)cc(OC)c1OC; met
COc1ccc(C(=O)Cn2nc(-c3cc(OC)c(OC)c(OC)c3)nc2N)cc1; met

Would you say `CCc1ccc(NC(=O)Cn2nc(-c3cc(OC)c(OC)c(OC)c3)nc2N)cc1` shows inhibition of growth at 100 µM at minimum 30%?
not met

Would you say `COc1cc(-c2nc(N)n(Cc3cccc(C#N)c3)n2)cc(OC)c1OC` shows inhibition of growth at 100 µM at minimum 30%?
not met

Would you say `COc1cc(-c2nc(N)n(CC(=O)c3ccc(Cl)cc3)n2)cc(OC)c1OC` shows inhibition of growth at 100 µM at minimum 30%?
met

Would you say `COc1cc(-c2nc(N)n(Cc3ccc(F)cc3)n2)cc(OC)c1OC` shows inhibition of growth at 100 µM at minimum 30%?
not met

Would you say `COc1cc(-c2nc(N)n(Cc3ccccc3F)n2)cc(OC)c1OC` shows inhibition of growth at 100 µM at minimum 30%?
met

Would you say `COc1cc(-c2nc(N)n(CC(=O)c3ccc(F)cc3)n2)cc(OC)c1OC` shows inhibition of growth at 100 µM at minimum 30%?
not met

Would you say `COc1cc(-c2nc(N)n(CC(=O)Nc3ccc(C(C)C)cc3)n2)cc(OC)c1OC` shows inhibition of growth at 100 µM at minimum 30%?
met

Would you say `COc1cc(-c2nc(N)n(CC(=O)Nc3ccc(N(C)C)cc3)n2)cc(OC)c1OC` shows inhibition of growth at 100 µM at minimum 30%?
not met

----------
Tested on: HeLa
experiment_summary: Antiproliferative activity against human HeLa cells assessed as cell growth inhibition at 100 uM by MTT assay relative to control
Type: functional
condition_parameters: read-out: GI
measurement_kind: inhibition of growth at 100 µM (%)
Answers are plain numbers, in %.

// below: answered compounds
COc1cc(-c2nc(N)n(Cc3ccc(Cl)cc3)n2)cc(OC)c1OC; 55
COc1cc(-c2nc(N)n(CC(=O)Nc3ccc(C(C)(C)C)cc3)n2)cc(OC)c1OC; 95
COc1cc(-c2nc(N)n(CC(=O)c3ccc(C)cc3)n2)cc(OC)c1OC; 70

Complete the entry with inhibition of growth at 100 µM for `COc1cc(-c2nc(N)n(CC(=O)Nc3ccc(C)c(C)c3)n2)cc(OC)c1OC`
20
